Tested on: vancomycin-resistant enterococci
assay-info: broth micro-dilution, mean geometric MIC
Type: cell-based, Enterococcus faecium and Enterococcus faecalis
condition-context: enterococci, 24-hour incubation
Field: label. Allowed values: T (mean geometric MIC, Vancomycin Resistant Strains < 2 µg/mL) or F (mean geometric MIC, Vancomycin Resistant Strains >= 2 µg/mL).

## Task Answer whether the compound CC(C)CC(C(=O)NC1C(=O)NC(CC(N)=O)C(=O)NC2C(=O)NC3C(=O)NC(C(=O)NC(C(=O)O)c4cc(O)cc(O)c4-c4cc3ccc4O)C(OC3CC(C)(N)C(O)C(C)O3)c3ccc(c(Cl)c3)Oc3cc2cc(c3OC2OC(CO)C(O)C(O)C2OC2CC(C)(NCc3ccc(Cc4ccccc4)cc3)C(O)C(C)O2)Oc2ccc(cc2Cl)C1O)N(C)Cc1ccc(Cc2ccccc2)cc1 (centres unmarked) has mean geometric MIC, Vancomycin Resistant Strains strictly less than 2 µg/mL
## Result F

## Task Answer whether the compound CNC(CC(C)C)C(=O)NC1C(=O)NC(CC(N)=O)C(=O)NC2C(=O)NC3C(=O)NC(C(=O)NC(C(=O)O)c4cc(O)cc(O)c4-c4cc3ccc4O)C(OC3CC(C)(N)C(O)C(C)O3)c3ccc(c(Cl)c3)Oc3cc2cc(c3OC2OC(CO)C(O)C(O)C2OC2CC(C)(NCc3ccc(OCc4ccccc4)cc3)C(O)C(C)O2)Oc2ccc(cc2Cl)C1O (centres unmarked) has mean geometric MIC, Vancomycin Resistant Strains strictly less than 2 µg/mL
## Result T

## Task Answer whether the compound CN[C@H](CC(C)C)C(=O)N[C@H]1C(=O)N[C@@H](CC(N)=O)C(=O)N[C@H]2C(=O)N[C@H]3C(=O)N[C@H](C(=O)N[C@H](C(=O)O)c4cc(O)cc(O)c4-c4cc3ccc4O)[C@H](O[C@H]3C[C@](C)(N)[C@@H](O)[C@H](C)O3)c3ccc(c(Cl)c3)Oc3cc2cc(c3O[C@@H]2O[C@H](CO)[C@@H](O)[C@H](O)[C@H]2O[C@H]2C[C@](C)(NCc3ccc(OCc4ccc(Cl)cc4)cc3)[C@@H](O)[C@H](C)O2)Oc2ccc(cc2Cl)[C@H]1O has mean geometric MIC, Vancomycin Resistant Strains strictly less than 2 µg/mL
## Result T

## Task Answer whether the compound CNC(CC(C)C)C(=O)NC1C(=O)NC(CC(N)=O)C(=O)NC2C(=O)NC3C(=O)NC(C(=O)NC(C(=O)O)c4cc(O)cc(O)c4-c4cc3ccc4O)C(OC3CC(C)(NCc4ccc(-c5ccc([N+](=O)[O-])cc5)cc4)C(O)C(C)O3)c3ccc(c(Cl)c3)Oc3cc2cc(c3OC2OC(CO)C(O)C(O)C2OC2CC(C)(NCc3ccc(-c4ccc([N+](=O)[O-])cc4)cc3)C(O)C(C)O2)Oc2ccc(cc2Cl)C1O (centres unmarked) has mean geometric MIC, Vancomycin Resistant Strains strictly less than 2 µg/mL
## Result T

## Task Answer whether the compound CNC(CC(C)C)C(=O)NC1C(=O)NC(CC(N)=O)C(=O)NC2C(=O)NC3C(=O)NC(C(=O)NC(C(=O)O)c4cc(O)cc(O)c4-c4cc3ccc4O)C(OC3CC(C)(N)C(O)C(C)O3)c3ccc(c(Cl)c3)Oc3cc2cc(c3OC2OC(CO)C(O)C(O)C2OC2CC(C)(NCc3ccc(OC)c4ccccc34)C(O)C(C)O2)Oc2ccc(cc2Cl)C1O (centres unmarked) has mean geometric MIC, Vancomycin Resistant Strains strictly less than 2 µg/mL
## Result F

## Task Answer whether the compound CNC(CC(C)C)C(=O)NC1C(=O)NC(CC(N)=O)C(=O)NC2C(=O)NC3C(=O)NC(C(=O)NC(C(=O)O)c4cc(O)cc(O)c4-c4cc3ccc4O)C(OC3CC(C)(N)C(O)C(C)O3)c3ccc(c(Cl)c3)Oc3cc2cc(c3OC2OC(CO)C(O)C(O)C2OC2CC(C)(NCc3ccc(OCCCC#N)cc3)C(O)C(C)O2)Oc2ccc(cc2Cl)C1O (centres unmarked) has mean geometric MIC, Vancomycin Resistant Strains strictly less than 2 µg/mL
## Result F

## Task Answer whether the compound CCCCCc1ccc(-c2ccc(CNC3(C)CC(OC4C(Oc5c6cc7cc5Oc5ccc(cc5Cl)C(OC5CC(C)(N)C(O)C(C)O5)C5NC(=O)C(NC(=O)C7NC(=O)C(CC(N)=O)NC(=O)C(NC(=O)C(CC(C)C)NC)C(O)c7ccc(c(Cl)c7)O6)c6ccc(O)c(c6)-c6c(O)cc(O)cc6C(C(=O)O)NC5=O)OC(CO)C(O)C4O)OC(C)C3O)cc2)cc1 (centres unmarked) has mean geometric MIC, Vancomycin Resistant Strains strictly less than 2 µg/mL
## Result T

## Task Answer whether the compound CNC(CC(C)C)C(=O)NC1C(=O)NC(CC(N)=O)C(=O)NC2C(=O)NC3C(=O)NC(C(=O)NC(C(=O)O)c4cc(O)cc(O)c4-c4cc3ccc4O)C(OC3CC(C)(N)C(O)C(C)O3)c3ccc(c(Cl)c3)Oc3cc2cc(c3OC2OC(CO)C(O)C(O)C2OC2CC(C)(NCc3ccc(Oc4ccc(Cl)cc4)cc3)C(O)C(C)O2)Oc2ccc(cc2Cl)C1O (centres unmarked) has mean geometric MIC, Vancomycin Resistant Strains strictly less than 2 µg/mL
## Result T

## Task Answer whether the compound CNC(CC(C)C)C(=O)NC1C(=O)NC(CC(N)=O)C(=O)NC2C(=O)NC3C(=O)NC(C(=O)NC(C(=O)O)c4cc(O)cc(O)c4-c4cc3ccc4O)C(O)c3ccc(c(Cl)c3)Oc3cc2cc(c3OC2OC(CO)C(O)C(O)C2OC2CC(C)(NCc3cccc4ccccc34)C(O)C(C)O2)Oc2ccc(cc2Cl)C1O (centres unmarked) has mean geometric MIC, Vancomycin Resistant Strains strictly less than 2 µg/mL
## Result F

## Task Answer whether the compound CC(C)CC(C(=O)NC1C(=O)NC(CC(N)=O)C(=O)NC2C(=O)NC3C(=O)NC(C(=O)NC(C(=O)O)c4cc(O)cc(O)c4-c4cc3ccc4O)C(OC3CC(C)(N)C(O)C(C)O3)c3ccc(c(Cl)c3)Oc3cc2cc(c3OC2OC(CO)C(O)C(O)C2OC2CC(C)(NCc3cccc(Oc4ccccc4)c3)C(O)C(C)O2)Oc2ccc(cc2Cl)C1O)N(C)Cc1cccc(Oc2ccccc2)c1 (centres unmarked) has mean geometric MIC, Vancomycin Resistant Strains strictly less than 2 µg/mL
## Result F

## Task Answer whether the compound CNC(CC(C)C)C(=O)NC1C(=O)NC(CC(N)=O)C(=O)NC2C(=O)NC3C(=O)NC(C(=O)NC(C(=O)O)c4cc(O)cc(O)c4-c4cc3ccc4O)C(OC3CC(C)(N)C(O)C(C)O3)c3ccc(c(Cl)c3)Oc3cc2cc(c3OC2OC(CO)C(O)C(O)C2OC2CC(C)(NCc3ccc(C#Cc4ccccc4)cc3)C(O)C(C)O2)Oc2ccc(cc2Cl)C1O (centres unmarked) has mean geometric MIC, Vancomycin Resistant Strains strictly less than 2 µg/mL
## Result T

* * *

Test system: Lactobacillus confusus
assay-info: agar dilution MIC, lactic acid bacteria
Assay type: cell-based
condition-context: Lactobacillus confusus, brain-heart infusion agar
outcome-measure: MIC
Could you give the number and then its unit, please?

Entry under test: CNC(CC(C)C)C(=O)NC1C(=O)NC(CC(N)=O)C(=O)NC2C(=O)NC3C(=O)NC(C(=O)NC(C(=O)O)c4cc(O)cc(O)c4-c4cc3ccc4O)C(OC3CC(C)(N)C(O)C(C)O3)c3ccc(c(Cl)c3)Oc3cc2cc(c3OC2OC(CO)C(O)C(O)C2OC2CC(C)(NCc3ccc(Sc4ccccc4)cc3)C(O)C(C)O2)Oc2ccc(cc2Cl)C1O (centres unmarked) . Its MIC was 16 µg/mL

Entry under test: CNC(CC(C)C)C(=O)NC1C(=O)NC(CC(N)=O)C(=O)NC2C(=O)NC3C(=O)NC(C(=O)NC(C(=O)O)c4cc(O)cc(O)c4-c4cc3ccc4O)C(OC3CC(C)(N)C(O)C(C)O3)c3ccc(c(Cl)c3)Oc3cc2cc(c3OC2OC(CO)C(O)C(O)C2OC2CC(C)(NCc3ccc(OCc4ccccc4)cc3)C(O)C(C)O2)Oc2ccc(cc2Cl)C1O (centres unmarked) . Its MIC was 16 µg/mL

* * *

System: Staphylococcus aureus SA1199B
Format: cell-based
outcome-measure: MIC (µg/mL)
Just the number please, in µg/mL, no unit attached.

Entry under test: C=CCOc1ccc(CNC2(C)CC(OC3C(Oc4c5cc6cc4Oc4ccc(cc4Cl)C(OC4CC(C)(N)C(O)C(C)O4)C4NC(=O)C(NC(=O)C6NC(=O)C(CC(N)=O)NC(=O)C(NC(=O)C(CC(C)C)NC)C(O)c6ccc(c(Cl)c6)O5)c5ccc(O)c(c5)-c5c(O)cc(O)cc5C(C(=O)O)NC4=O)OC(CO)C(O)C3O)OC(C)C2O)cc1 (stereo not drawn) . Its MIC was 1

Entry under test: CNC(CC(C)C)C(=O)NC1C(=O)NC(CC(N)=O)C(=O)NC2C(=O)NC3C(=O)NC(C(=O)NC(C(=O)O)c4cc(O)cc(O)c4-c4cc3ccc4O)C(OC3CC(C)(N)C(O)C(C)O3)c3ccc(c(Cl)c3)Oc3cc2cc(c3OC2OC(CO)C(O)C(O)C2OC2CC(C)(NCc3cc4ccccc4c4ccccc34)C(O)C(C)O2)Oc2ccc(cc2Cl)C1O (stereo not drawn) . Its MIC was 2

Entry under test: CNC(CC(C)C)C(=O)NC1C(=O)NC(CC(N)=O)C(=O)NC2C(=O)NC3C(=O)NC(C(=O)NC(C(=O)O)c4cc(O)cc(O)c4-c4cc3ccc4O)C(OC3CC(C)(N)C(O)C(C)O3)c3ccc(c(Cl)c3)Oc3cc2cc(c3OC2OC(CO)C(O)C(O)C2OC2CC(C)(NCc3ccc(OC(=O)C4CCCCC4)cc3)C(O)C(C)O2)Oc2ccc(cc2Cl)C1O (stereo not drawn) . Its MIC was 1

Entry under test: CNC(CC(C)C)C(=O)NC1C(=O)NC(CC(N)=O)C(=O)NC2C(=O)NC3C(=O)NC(C(=O)NC(C(=O)O)c4cc(O)cc(O)c4-c4cc3ccc4O)C(OC3CC(C)(N)C(O)C(C)O3)c3ccc(c(Cl)c3)Oc3cc2cc(c3OC2OC(CO)C(O)C(O)C2OC2CC(C)(NCc3ccc(OCc4ccc([N+](=O)[O-])cc4)cc3)C(O)C(C)O2)Oc2ccc(cc2Cl)C1O (stereo not drawn) . Its MIC was 1

Entry under test: CC(C)CC(C(=O)NC1C(=O)NC(CC(N)=O)C(=O)NC2C(=O)NC3C(=O)NC(C(=O)NC(C(=O)O)c4cc(O)cc(O)c4-c4cc3ccc4O)C(OC3CC(C)(N)C(O)C(C)O3)c3ccc(c(Cl)c3)Oc3cc2cc(c3OC2OC(CO)C(O)C(O)C2OC2CC(C)(NCc3c4c(cc5ccccc35)CCCC4)C(O)C(C)O2)Oc2ccc(cc2Cl)C1O)N(C)Cc1c2c(cc3ccccc13)CCCC2 (stereo not drawn) . Its MIC was 0.5
